- Test system: SW480
- Assay name: drug sensitivity score (DSS, integrated dose-response area); higher = more sensitive (stronger viability reduction); extreme values may be limits of the assay
- Particulars: shRNA: SND1 shRNA1 (SND1 silenced)
Let's look at some compounds and their measured drug sensitivity score.
Recorded endpoint: drug sensitivity score (DSS)

1) CC[C@]1(O)C[C@@H]2CN(CCc3c([nH]c4ccccc34)[C@@](C(=O)OC)(c3cc4c(cc3OC)N(C)[C@H]3[C@@](O)(C(=O)OC)[C@H](OC(C)=O)[C@]5(CC)C=CCN6CC[C@]43[C@@H]65)C2)C1 [Vinblastine] ... 9.6
2) CCNC(=O)Nc1ccc(-c2nc3c(c(N4CCOC[C@@H]4C)n2)CCN(C2COC2)C3)cc1 [RG-7603] ... 0.7
3) Oc1ncc(N(CCCl)CCCl)c(O)n1 [Uramustine] ... 0
4) CC(=O)c1cnc2ccc(-c3cc(Cl)c(O)c(Cl)c3)nc2c1N[C@H]1CC[C@H](CN(C)C)CC1 [OTSSP167] ... 9.8
5) C[C@@H]1C[C@H]2O[C@@H]2/C=C\C=C\C(=O)Cc2c(Cl)c(O)cc(O)c2C(=O)O1 [Radicicol] ... 13.4
6) O=C(O)C1(C(=O)O)CCC1.[NH2-].[NH2-].[Pt+2] [Carboplatin] ... 1
7) Oc1ccc2c(c1)CC[C@H](c1ccccc1)[C@@H]2c1ccc(OCCN2CCCC2)cc1 [Lasofoxifene] ... 0.8
8) O=C(c1cc(Cc2n[nH]c(=O)c3ccccc23)ccc1F)N1CCN(C(=O)C2CC2)CC1 [Olaparib] ... 2.7
9) Cc1c(Cn2c(C)nc3c(C(=O)O)cc(N4CCOCC4)cc32)cccc1C(F)(F)F ... 2
10) Cc1cc(OCc2nnc(SC3CCCC3)n2-c2cccnc2)ccc1-c1ccc(S(C)(=O)=O)cc1 [NMS-873] ... 9.5
11) CC(C)Cn1cnc2c(N)nc3ccccc3c21 [Imiquimod] ... 0.9
12) CC(C)Oc1ccc(C(=O)N[C@H](CNC(=O)CN(C)C)Cc2ccc(-c3cn4cccc([C@H](C)O)c4n3)cc2)cc1Cl ... 13.1
13) C1=N/C2=N/c3ccc(OCCN4CCCC4)c(c3)COC/C=C/COCc3cccc(c3)C(=C1)N2 [Pacritinib] ... 9.6
14) COc1ccc2c(OCc3nnc4ccc(-c5ccccc5)nn34)ccnc2c1 [AMG-208] ... 0
15) CCN1CCN(c2ccc(Nc3cc(N(C)C(=O)Nc4c(Cl)c(OC)cc(OC)c4Cl)ncn3)cc2)CC1 [NVP-BGJ398] ... 0
16) CCS(=O)(=O)N1CCN(c2ccc(Nc3ncc(C(N)=O)c(NC4CC4)n3)cc2)CC1 [Cerdulatinib] ... 7.8

----------
Let's look at some compounds and their measured drug sensitivity score.
- System: SW480
- Assay name: drug sensitivity score (DSS, integrated dose-response area); higher = more sensitive (stronger viability reduction); extreme values may be limits of the assay
- Particulars: shRNA: SND1 shRNA1 (SND1 silenced)
Recorded endpoint: drug sensitivity score

1) C[C@@H]1CCN(C(=O)CC#N)C[C@@H]1N(C)c1ncnc2[nH]ccc12 [Tofacitinib] ... 0 DSS
2) S=c1[nH]cnc2nc[nH]c12 [Mercaptopurine] ... 9.7 DSS
3) Cc1c2oc3c(C)ccc(C(=O)N[C@@H]4C(=O)N[C@H](C(C)C)C(=O)N5CCC[C@H]5C(=O)N(C)CC(=O)N(C)[C@@H](C(C)C)C(=O)O[C@@H]4C)c3nc-2c(C(=O)N[C@@H]2C(=O)N[C@H](C(C)C)C(=O)N3CCC[C@H]3C(=O)N(C)CC(=O)N(C)[C@@H](C(C)C)C(=O)O[C@@H]2C)c(N)c1=O [Dactinomycin] ... 24.3 DSS
4) CC[C@@H]1C(=O)N(C)c2cnc(Nc3ccc(C(=O)NC4CCN(C)CC4)cc3OC)nc2N1C1CCCC1 [BI 2536] ... 16.8 DSS
5) N#CCNC(=O)c1ccc(-c2ccnc(Nc3ccc(N4CCOCC4)cc3)n2)cc1 [Momelotinib] ... 3.8 DSS
6) CNC(=O)c1nn(C)c2c1C(C)(C)Cc1cnc(Nc3ccc(N4CCN(C)CC4)cc3)nc1-2 [Milciclib] ... 11.4 DSS
7) CCN1CCN(Cc2ccc(-c3cc4c(N[C@H](C)c5ccccc5)ncnc4[nH]3)cc2)CC1 [NVP-AEE788] ... 1.5 DSS
8) CC(=O)N(O)CCCCCNC(=O)CCC(=O)N(O)CCCCCNC(=O)CCC(=O)N(O)CCCCCN [Deferoxamine] ... 8 DSS
9) COC(=O)c1ccc2c(c1)NC(=O)/C2=C(\Nc1ccc(N(C)C(=O)CN2CCN(C)CC2)cc1)c1ccccc1 [Nintedanib] ... 8.4 DSS
10) COc1cc(O)c2c(c1)/C=C/C[C@H](O)[C@H](O)C(=O)/C=C\C[C@H](C)OC2=O [(5Z)-7-Oxozeaenol] ... 3.7 DSS
11) C[C@]1(c2nc3c(C(N)=O)cccc3[nH]2)CCCN1 [Veliparib] ... 0 DSS
12) Nc1ccn([C@@H]2O[C@H](CO)[C@@H](O)[C@@H]2O)c(=O)n1 [Cytarabine] ... 5.4 DSS
13) COC[C@H](NC(=O)c1cnc(C)s1)C(=O)N[C@@H](COC)C(=O)N[C@@H](Cc1ccccc1)C(=O)[C@@]1(C)CO1 [Oprozomib] ... 17.7 DSS
14) C=CC(=O)Nc1cccc(Nc2nc(Nc3ccc(N4CCN(C(C)=O)CC4)cc3OC)ncc2C(F)(F)F)c1 [Rociletinib] ... 7.2 DSS
